Reference for the values: patent US12454536B2

Biological target: hA1 (Homo sapiens)
Sequence (P30542 whole entry): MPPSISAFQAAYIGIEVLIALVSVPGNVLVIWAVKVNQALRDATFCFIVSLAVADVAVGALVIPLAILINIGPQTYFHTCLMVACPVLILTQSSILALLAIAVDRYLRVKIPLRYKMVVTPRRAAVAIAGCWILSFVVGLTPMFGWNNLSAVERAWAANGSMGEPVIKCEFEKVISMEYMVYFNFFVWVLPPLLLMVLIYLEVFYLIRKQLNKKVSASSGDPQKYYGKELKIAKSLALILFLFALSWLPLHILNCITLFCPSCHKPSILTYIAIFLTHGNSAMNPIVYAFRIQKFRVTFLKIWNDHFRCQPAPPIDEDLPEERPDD
Test: biochemical
Settings: further tests, taking into account the above data, n=3
pKi: −log10 of the molar value.
endpoint: pKi

Look at this compound and give its reported pKi. [2H]C([2H])(F)C([2H])([2H])Oc1ccc(CCCn2ncc3c2nc(N)n2nc(-c4ccco4)nc32)cc1 (single isomer, unassigned) < 6.00

----------
Target: UniProt P30542
Assay: biochemical
Settings: first determination
endpoint: pKi
FYI, pKi means -log10 of a concentration in mol per litre.

What value of pKi has been reported for the following compound? [2H]C([2H])(F)C([2H])([2H])Oc1ccc(CCCn2ncc3c2nc(N)n2nc(-c4ccco4)nc32)cc1 (single isomer, unassigned) 6.12

----------
Biological target: hA2A (Homo sapiens, UniProt P29274)
Sequence (P29274 whole entry): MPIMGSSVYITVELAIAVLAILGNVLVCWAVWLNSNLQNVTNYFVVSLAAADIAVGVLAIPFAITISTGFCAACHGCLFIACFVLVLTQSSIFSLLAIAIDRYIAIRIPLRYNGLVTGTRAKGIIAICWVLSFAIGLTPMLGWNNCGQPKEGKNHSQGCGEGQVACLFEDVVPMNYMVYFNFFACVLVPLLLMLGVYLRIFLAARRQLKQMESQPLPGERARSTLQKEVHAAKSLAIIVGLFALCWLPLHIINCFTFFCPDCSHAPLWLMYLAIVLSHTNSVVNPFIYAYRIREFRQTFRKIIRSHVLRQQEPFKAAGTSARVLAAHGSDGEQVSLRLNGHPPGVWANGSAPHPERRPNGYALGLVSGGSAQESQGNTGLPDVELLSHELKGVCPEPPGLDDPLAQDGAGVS
Assay: Affinity for human adenosine A2A receptor (Ki)
Assay type: binding
Conditions: further tests, taking into account the above data, n=3
endpoint: Ki
Don't forget the unit after the value.

Given the entry [2H]C([2H])(F)C([2H])([2H])Oc1ccc(CCCn2ncc3c2nc(N)n2nc(-c4ccco4)nc32)cc1 (single isomer, unassigned) [FLUDA] , report its measured Ki. 0.74 nM

----------
Molecular target: hA1 (Homo sapiens)
Experiment: biochemical
Conditions: n=4
endpoint: pKi
Note on units: pKi is unitless, being -log10 of a concentration expressed in mol/L.

What reported pKi corresponds to Nc1nc2c(cnn2CCCc2ccc(OCC[18F])cc2)c2nc(-c3ccco3)nn12 (single isomer, unassigned) [[^18F]D, reference compound] on hA1 (Homo sapiens)? 6.69
